assay: Plasma pharmacokinetics, Arm II (oral BID), phase 1 trial; type: in vivo, human; conditions: human, plasma, po, 340 mg, Arm II PO BID 340 mg, day 1, N=3; read-out: Tmax
MEASURED_ATTRIBUTE: Tmax (h)
Numbers only, in h.

Tell me its Tmax given Nc1ncc(-c2cnn(CCO)c2)c2scc(-c3ccc(NC(=O)Nc4cccc(F)c4)cc3)c12 as the entry. 15

====

assay: Plasma pharmacokinetics, Arm III (i.v. infusion), phase 1 trial; type: in vivo, human; conditions: human, plasma, iv, 8 mg, Arm III i.v. infusion 8 mg, day 1, N=4; read-out: Cmax
MEASURED_ATTRIBUTE: Cmax (ng/mL)
Answers are plain numbers, in ng/mL.

Give a short answer stating reported Cmax for Nc1ncc(-c2cnn(CCO)c2)c2scc(-c3ccc(NC(=O)Nc4cccc(F)c4)cc3)c12 . 230
